Efficiency reference
experimental target: human M2 receptor (Homo sapiens)
Construct: expressed in transfected cells; host or cells: CHO-DUKX (CHO-DUKX-M2-GIRK)
Sequence (P08172 1-466): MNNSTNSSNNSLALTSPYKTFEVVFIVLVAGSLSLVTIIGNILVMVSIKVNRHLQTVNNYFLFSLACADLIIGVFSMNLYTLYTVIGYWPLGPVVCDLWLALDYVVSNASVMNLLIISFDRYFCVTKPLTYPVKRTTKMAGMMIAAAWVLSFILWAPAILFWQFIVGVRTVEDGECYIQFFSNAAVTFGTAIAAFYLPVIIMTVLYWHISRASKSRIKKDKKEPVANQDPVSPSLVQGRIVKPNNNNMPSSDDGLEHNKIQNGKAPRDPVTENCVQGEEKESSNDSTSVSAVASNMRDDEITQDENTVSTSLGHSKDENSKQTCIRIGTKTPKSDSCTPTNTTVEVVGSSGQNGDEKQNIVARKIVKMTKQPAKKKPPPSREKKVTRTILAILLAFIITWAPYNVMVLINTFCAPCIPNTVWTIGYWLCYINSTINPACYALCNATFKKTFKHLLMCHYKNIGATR
test summary: Functional M2-GIRK1/4 activation test: allosteric potency (EC50) and efficiency at EC20 acetylcholine
Format: cell-based
stated conditions: boosting of the acetylcholine effect at EC20 acetylcholine concentration; CHO-DUKX-M2-GIRK cells
Only the number, expressed in %, is required.

// known answers, use as guide
* CC(NC(=O)c1cn(-c2ncc(F)cc2F)c2nc(N3CC(O)C(O)C3)c(F)cc2c1=O)C(F)(F)C(F)(F)F (single isomer, unassigned) | 100
* CC(C)C(NC(=O)c1cn(-c2c(F)cc(F)cc2F)c2nc(N3CC[C@H](O)C3)c(F)cc2c1=O)C(F)(F)F (single isomer, unassigned) | 95
* CC(NC(=O)c1cn(-c2c(F)cc(F)cc2F)c2nc(N3CC(CO)(CO)C3)c(F)cc2c1=O)C(F)(F)C(F)(F)F (racemic) [Example 170] | 100
* CC(C)(NC(=O)c1cn(-c2c(F)cc(F)cc2Cl)c2nc(N3C[C@@H](O)[C@H](O)C3)c(F)cc2c1=O)C(F)F (single isomer, unassigned) | 94

Efficiency in this record for CCC(NC(=O)c1cn(-c2c(F)cc(F)cc2F)c2nc(N3C[C@@H](O)[C@@H](O)C3)c(F)cc2c1=O)C(C)C (stereo partly drawn) [Example 105] : 97

Efficiency in this record for CCC(COC(F)(F)F)NC(=O)c1cn(-c2c(F)cc(F)cc2F)c2nc(N3CC[C@H](O)C3)c(F)cc2c1=O (single isomer, unassigned) : 99

----------
experimental target: human M2 receptor (Homo sapiens)
test summary: Functional M2-GIRK1/4 activation test: allosteric potency (EC50) and efficiency at EC20 acetylcholine
stated conditions: CHO-DUKX-M2-GIRK cells; voltage-sensitive dye; acetylcholine at EC20; in some cases mean of two or more determinations
Counter-ions that a name gives are not always drawn.
Could you please mark true (1) for values of EC50 below 10 nM and false (0) for values at or above it?

Completed entries (count: 10):
- CC(NC(=O)c1cn(-c2c(F)cc(F)cc2F)c2nc(N3CCC(O)C(O)C3)c(F)cc2c1=O)C(F)(F)C(F)(F)F (stereo not drawn) [Example 181]: false (0)
- O=C(N[C@@H](C1CC1)C(F)(F)F)c1cn(-c2c(F)cc(F)cc2Cl)c2nc(N3CC(CO)(CO)C3)c(F)cc2c1=O (single isomer, unassigned) [Example 70]: false (0)
- O=C(NC(c1ccccc1Cl)C(F)(F)F)c1cn(-c2ccc(F)cc2F)c2ncc(Cl)cc2c1=O (racemic) [Example 134]: false (0)
- CC(NC(=O)c1cn(-c2ncc(F)cc2F)c2nc(N3CC[C@H](O)C3)c(F)cc2c1=O)C(F)(F)C(F)(F)F (single isomer, unassigned) [Example 129]: false (0)
- CC(C)(NC(=O)c1cn(-c2c(F)cc(F)cc2F)c2nc(N3C[C@@H](O)[C@H](O)C3)c(F)cc2c1=O)C(F)(F)C(F)(F)F [Example 164]: true (1)
- O=C(N[C@@H](C1CC1)C(F)(F)F)c1cn(-c2c(F)cc(F)cc2Cl)c2nc(N3CC4(COC4)C3)c(F)cc2c1=O [Example 68, trifluoroacetate]: false (0)
- CC(C)(CC(F)(F)F)NC(=O)c1cn(-c2c(F)cccc2F)c2nc(N3C[C@@H](O)[C@H](O)C3)c(F)cc2c1=O [Example 1]: false (0)
- CC(C)(C)C(NC(=O)c1cn(-c2c(F)cc(F)cc2F)c2nc(N3CC(CO)(CO)C3)c(F)cc2c1=O)C(F)(F)C(F)(F)F (single isomer, unassigned) [Example 216]: true (1)
- CC(C)(NC(=O)c1cn(-c2c(F)cc(F)cc2Cl)c2nc(N3C[C@@H](O)[C@H](O)C3)c(F)cc2c1=O)C(F)(F)F [Example 41]: true (1)
- CCC(COC(F)(F)F)NC(=O)c1cn(-c2c(F)cc(F)cc2F)c2nc(N3C[C@@H](O)[C@@H](O)C3)c(F)cc2c1=O (single isomer, unassigned) [Example 96]: false (0)

Q: Please state whether EC50 is below 10 nM for O=C(NC(C(F)(F)F)C(F)(F)F)c1cn(-c2ncc(F)cc2F)c2nc(N3CCC(O)(CO)CC3)c(F)cc2c1=O [Example 198]
A: false (0)
